Item-by-item account of Kd
target under test: T1, DD(E) fragment of fibrin
T1 chain 1: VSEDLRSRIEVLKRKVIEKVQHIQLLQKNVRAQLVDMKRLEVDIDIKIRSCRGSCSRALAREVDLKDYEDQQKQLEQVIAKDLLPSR
T1 chain 2: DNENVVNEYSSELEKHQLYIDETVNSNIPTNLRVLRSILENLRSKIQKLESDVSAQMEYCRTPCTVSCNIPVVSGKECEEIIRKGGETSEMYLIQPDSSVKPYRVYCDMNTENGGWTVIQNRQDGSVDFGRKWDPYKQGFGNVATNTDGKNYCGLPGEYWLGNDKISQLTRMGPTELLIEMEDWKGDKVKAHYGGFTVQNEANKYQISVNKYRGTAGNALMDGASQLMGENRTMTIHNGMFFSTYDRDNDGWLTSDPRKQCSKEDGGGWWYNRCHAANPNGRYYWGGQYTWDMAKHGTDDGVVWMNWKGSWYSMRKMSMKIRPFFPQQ
T1 chain 3: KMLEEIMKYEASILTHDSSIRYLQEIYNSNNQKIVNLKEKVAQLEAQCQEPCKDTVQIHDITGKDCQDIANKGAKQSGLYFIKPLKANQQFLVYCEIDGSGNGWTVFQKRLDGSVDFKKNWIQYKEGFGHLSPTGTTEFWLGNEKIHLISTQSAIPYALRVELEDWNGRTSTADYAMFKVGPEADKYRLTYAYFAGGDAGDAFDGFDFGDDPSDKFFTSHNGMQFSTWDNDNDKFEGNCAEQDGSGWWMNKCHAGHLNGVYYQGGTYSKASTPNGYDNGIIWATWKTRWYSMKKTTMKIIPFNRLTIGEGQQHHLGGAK
T1 chain 4: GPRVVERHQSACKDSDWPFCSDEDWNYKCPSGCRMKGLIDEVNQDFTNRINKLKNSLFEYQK
T1 chain 5: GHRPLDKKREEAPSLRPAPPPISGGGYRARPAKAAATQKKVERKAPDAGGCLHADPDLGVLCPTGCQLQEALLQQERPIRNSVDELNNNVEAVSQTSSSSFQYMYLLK
T1 chain 6: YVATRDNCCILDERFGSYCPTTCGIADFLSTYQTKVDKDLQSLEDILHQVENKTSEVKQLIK
test: affinity to DD(E) fragment of fibrin
Non-standard residues stand in square brackets, D forms with d. No end group written: not given here. Bip = N[C@@H](Cc1ccc(-c2ccccc2)cc1)C(=O)O; Cha = N[C@@H](CC1CCCCC1)C(=O)O
property measured: Kd

                                     binder  property_measured  obs_value
0  LPCDYYGTCLD (not fully specified; cysteine pairing not given here) [L-P-C-D-Y-Y-G-T-C-L-D]                 Kd    ≤ 10 µM
1  [Cha]PCDYYGTC[Bip]D (cysteine pairing not given here) [Cha-P-C-D-Y-Y-G-T-C-Bip-D]                 Kd    ≤ 10 µM
